target: PDK1 (Homo sapiens); construct: His6 (N); test: Test for the inhibition of PDK1 (flashplate, 33P-ATP); format: biochemical
Sequence (O15530 51-556): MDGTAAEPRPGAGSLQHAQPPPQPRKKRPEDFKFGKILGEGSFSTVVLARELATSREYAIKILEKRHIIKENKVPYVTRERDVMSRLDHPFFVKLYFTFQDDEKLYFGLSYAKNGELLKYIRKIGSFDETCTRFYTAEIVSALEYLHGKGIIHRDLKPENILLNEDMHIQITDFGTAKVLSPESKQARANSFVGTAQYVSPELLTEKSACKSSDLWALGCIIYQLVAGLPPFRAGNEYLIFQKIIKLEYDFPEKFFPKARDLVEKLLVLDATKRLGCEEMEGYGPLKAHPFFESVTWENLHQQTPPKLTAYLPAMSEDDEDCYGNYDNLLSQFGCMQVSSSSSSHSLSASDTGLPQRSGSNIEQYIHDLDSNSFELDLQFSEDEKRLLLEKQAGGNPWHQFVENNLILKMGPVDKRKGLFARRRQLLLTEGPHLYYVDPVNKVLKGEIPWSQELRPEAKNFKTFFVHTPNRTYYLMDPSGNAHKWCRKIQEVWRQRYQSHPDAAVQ
pIC50: −log10 of the molar value.
measureName: pIC50

Request: Lab note: record pIC50 of CCc1cc(-c2c[nH]c3ncc(-c4cn[nH]c4)cc23)nc(N)n1 [Compound A60] tested on PDK1 (Homo sapiens).
Response: 6.00 to 8.00

* * *

The entries below are paired with their reported IC50.
test system: A2780 (ovary); test: Inhibition of the proliferation/vitality of tumour cells (Alamar Blue test); assay type: cell-based; conditions: Homo sapiens, 96 h, A2780 ovary cell line, 4 days cultivation with test substance

Examples from the recorded data:
# molecule, IC50
rows = [
    ("CCCCc1cc(-c2c[nH]c3ncccc23)nc(N)n1 [Compound A1]", "10 to 1000 nM"),
    ("CCc1cc(-c2c[nH]c3ncccc23)nc(N)n1 [Compound A5]", "10 to 1000 nM"),
    ("CCCc1cc(-c2c[nH]c3ncccc23)nc(N)n1 [Compound A3]", "10 to 1000 nM"),
    ("Nc1nc(-c2ccccc2)cc(-c2c[nH]c3ncccc23)n1 [Compound A2]", "10 to 1000 nM"),
    ("CCCCCc1cc(-c2c[nH]c3ncccc23)nc(N)n1 [Compound A6]", "1000 to 10000 nM"),
]

--- query ---
Request: // fetch IC50 given entry CCCC1CCC(c2cc(-c3c[nH]c4ncccc34)nc(N)n2)CC1 (stereo not drawn) [Compound A8]
Response: 1000 to 10000 nM
